Test: Solubility of the compound
Assay type: physicochemical
QUANTITY KIND: solubility

Query string: Reported solubility, compound `O=C(O)COc1ccc(Cl)cc1CN1CCN(S(=O)(=O)c2ccccc2)CC1` : ____
Result string: > 80 µM

Query string: I would be grateful if you could share the reported solubility for `C[C@H]1CN(Cc2cc(Cl)ccc2OCC(=O)O)CCN1C(=O)Cc1ccc(Cl)cc1` .
Result string: > 80 µM

* * *

// reported microsomal CLint per item
Test: Metabolic stability in human liver microsomes assessed as intrinsic clearance per mg of protein
Conditions: microsomes

Solved cases below.
SMILES RECORD	QUANTITY KIND	VALUE OBSERVED
C[C@H]1CN(Cc2cc(Cl)ccc2OCC(=O)O)CCN1C(=O)Cc1ccc(F)cc1	microsomal CLint	< 3 µL/min/mg
C[C@@H]1CN(Cc2cc(Cl)ccc2OCC(=O)O)C[C@H](C)N1C(=O)Cc1ccccc1	microsomal CLint	< 3 µL/min/mg

Query string: # microsomal CLint lookup, item `C[C@H]1CN(Cc2cc(Cl)ccc2OCC(=O)O)CCN1C(=O)Cc1ccccc1`
Result string: < 3 µL/min/mg

* * *

Let's look at some molecules and their measured hepatocyte CLint.
Experiment: Metabolic stability in rat hepatocytes assessed as intrinsic clearance measured per 10^6 cells
Use µL/min/1e6 cells as the unit, but write only the number.

MOLECULE	VALUE OBSERVED
CC1CN(S(=O)(=O)c2ccccc2)CCN1Cc1cc(Cl)ccc1OCC(=O)O (racemic)	7

Query string: Sample `O=C(O)COc1ccc(Cl)cc1CN1CCCN(S(=O)(=O)c2ccccc2)CC1` — what was its hepatocyte CLint?
Result string: 5

Query string: Fill blank: measured hepatocyte CLint of the molecule `CC[C@H]1CN(Cc2cc(Cl)ccc2OCC(=O)O)CCN1S(=O)(=O)c1ccccc1` is ____.
Result string: 4

Query string: Quick check: hepatocyte CLint of `C[C@H]1CN(Cc2cc(Cl)ccc2CC(=O)O)CCN1S(=O)(=O)Cc1ccccc1` ?
Result string: 9

* * *

Test: Lipophilicity, log D of the compound at pH 7.4
Assay type: physicochemical
Settings: buffer
Each entry gets false if its logD stays under 1, and true if its logD is 1 or above.

Please review the entries below; each comes with its answer.
MOLECULE	CATEGORY
C[C@H]1CN(Cc2cc(Cl)ccc2OC(C)(C)C(=O)O)CCN1S(=O)(=O)c1ccccc1	false
O=C(O)COc1ccc(Cl)cc1CN1CCN(S(=O)(=O)c2ccccc2)CC1	false

Query string: Quick check, logD >= 1? `C[C@H]1CN(Cc2cc(Cl)ccc2OCC(=O)O)CCN1C(=O)Cc1ccc(Cl)cc1`
Result string: true

Query string: Can CC1CN(S(=O)(=O)c2ccccc2)CCN1Cc1cc(Cl)ccc1OCC(=O)O (racemic) be said to have logD at or above 1?
Result string: false

Query string: Is it the case that `C[C@H]1CN(Cc2cc(Cl)ccc2OCC(=O)O)CCN1C(=O)Cc1cccc(Cl)c1` has logD reaching or exceeding 1?
Result string: false

* * *

Measured hepatocyte CLint values are reported for all entries that follow.
Assay: Metabolic stability in rat hepatocytes assessed as intrinsic clearance measured per 10^6 cells
The answer is to be given in µL/min/1e6 cells; state only the numeric part.

SMILES RECORD	hepatocyte CLint / µL/min/1e6 cells
C[C@H]1CN(Cc2cc(Cl)ccc2OCC(=O)O)CCN1C(=O)Cc1ccccc1	4

Query string: What measured hepatocyte CLint goes with `C[C@H]1CN(Cc2cc(Cl)ccc2CC(=O)NS(C)(=O)=O)CCN1S(=O)(=O)Cc1ccccc1` ?
Result string: 4

Query string: Any idea what its hepatocyte CLint is? The compound is `C[C@H]1CN(Cc2cc(Cl)ccc2OCC(=O)O)CCN1C(=O)C(C)(C)c1ccc(Cl)cc1`
Result string: 9

Query string: hepatocyte CLint for `C[C@@H]1CN(Cc2cc(Cl)ccc2OCC(=O)O)C[C@H](C)N1C(=O)Cc1ccccc1` ?
Result string: 20

Hello, the source for this data is ChEMBL document CHEMBL1687938, in case you need it.
